Measured melting point, listed per entry.
metric-name: melting point

- compound: "O=C(O)C(CCCCN1C(=O)c2ccccc2C1=O)NS(=O)(=O)c1ccc(-c2ccccc2)cc1 (racemic)"
  meas-value: "181 °C"
- compound: "O=C(O)C(CCCN1C(=O)c2ccccc2C1=O)NS(=O)(=O)c1ccc(-c2ccc(Cl)cc2)cc1 (racemic)"
  meas-value: "132 °C"
- compound: "O=C(O)[C@H](CCCN1C(=O)c2ccccc2C1=O)NS(=O)(=O)c1ccc(-c2ccc(Cl)cc2)cc1"
  meas-value: "179 °C"
- compound: "O=C(O)[C@H](CCN1C(=O)c2ccccc2C1=O)NS(=O)(=O)c1ccc(-c2ccccc2)cc1"
  meas-value: "167 °C"
- compound: "COC(=O)[C@@H](CCCCNC(=O)OCc1ccccc1)NS(=O)(=O)c1ccc(-c2ccc(Cl)cc2)cc1"
  meas-value: "69 to 70 °C"
- compound: "O=C(O)[C@H](CCCN1Cc2ccccc2C1=O)NS(=O)(=O)c1ccc(-c2ccc(Cl)cc2)cc1"
  meas-value: "213 to 215 °C"
- compound: "Cc1cc(C)nc(NCCC[C@H](NS(=O)(=O)c2ccc(-c3ccc(Cl)cc3)cc2)C(=O)O)n1"
  meas-value: "177 to 179 °C"

---

Measured IC50, listed per entry.
Biological target: neutrophil collagenase (MMP-8) (Homo sapiens, UniProt P22894)
Construct: enzymatic activity of the catalytic domains of human stromelysin and of neutrophil collagenase; made in house
Sequence (P22894 100-262 limits assumed): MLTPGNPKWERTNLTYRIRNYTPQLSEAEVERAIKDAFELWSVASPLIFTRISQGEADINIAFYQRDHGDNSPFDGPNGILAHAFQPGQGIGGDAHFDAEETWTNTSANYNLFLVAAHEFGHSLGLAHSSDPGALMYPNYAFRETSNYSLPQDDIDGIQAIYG
Assay: Enzyme inhibition of the catalytic domain of neutrophil collagenase (fluorogenic substrate)
Format: biochemical
Settings: 15 min preincubation, pH=6.5, fluorescence 328 nm (ex)/393 nm (em)
metric-name: IC50

- compound: "O=C(O)[C@H](CCCN1C(=O)C2CSCN2C1=O)NS(=O)(=O)c1ccc(-c2ccc(Cl)cc2)cc1 (stereo partly shown)"
  metric-name: "IC50"
  meas-value: "2 nM"
- compound: "O=C(NCCC[C@H](NS(=O)(=O)c1ccc(-c2ccc(Cl)cc2)cc1)C(=O)O)c1ccc2[nH]nnc2c1"
  metric-name: "IC50"
  meas-value: "10 nM"
- compound: "O=C(NCCC[C@H](NS(=O)(=O)c1ccc(-c2ccc(Cl)cc2)cc1)C(=O)O)c1ccccc1"
  metric-name: "IC50"
  meas-value: "2 nM"
- compound: "O=C(Cc1ccc(F)cc1)NCCC[C@H](NS(=O)(=O)c1ccc(-c2ccc(Cl)cc2)cc1)C(=O)O"
  metric-name: "IC50"
  meas-value: "4 nM"

---

Measured melting point, listed per entry.
metric-name: melting point (°C)

- molecule: "O=C(O)C(CCN1C(=O)c2ccccc2C1=O)NS(=O)(=O)c1ccc(-c2ccc(Cl)cc2)cc1 (racemic)"
  value-unit: "°C"
  meas-value: 238
- molecule: "O=C(O)[C@@H](CCCN1C(=O)c2ccccc2C1=O)NS(=O)(=O)c1ccc(-c2ccc(Cl)cc2)cc1"
  value-unit: "°C"
  meas-value: 178
- molecule: "O=C(O)C(CCN1C(=O)c2ccccc2C1=O)NS(=O)(=O)c1ccc(-c2ccccc2)cc1 (racemic)"
  value-unit: "°C"
  meas-value: 176
- molecule: "O=C(O)C(CCCN1C(=O)c2ccccc2C1=O)NS(=O)(=O)c1ccc(-c2ccccc2)cc1 (racemic)"
  value-unit: "°C"
  meas-value: 168

---

Measured pIC50, listed per entry.
Biological target: neutrophil collagenase (MMP-8) (Homo sapiens, UniProt P22894)
Construct: enzymatic activity of the catalytic domains of human stromelysin and of neutrophil collagenase
Test: Enzyme inhibition of the catalytic domain of neutrophil collagenase (fluorogenic substrate)
Conditions: 15 min preincubation, pH=6.5, fluorescence 328 nm (ex)/393 nm (em)
pIC50: −log10 of the molar value.

- compound: "CC(C)(C)CC(=O)NCCC[C@@H](NS(=O)(=O)c1ccc(-c2ccc(Cl)cc2)cc1)C(=O)O"
  pIC50: 8.52
- compound: "O=C(/C=C/c1ccc(Cl)cc1)NCCC[C@H](NS(=O)(=O)c1ccc(-c2ccc(Cl)cc2)cc1)C(=O)O"
  pIC50: 8.00
- compound: "CC(=O)NCSC[C@@H](NS(=O)(=O)c1ccc(-c2ccc(Cl)cc2)cc1)C(=O)O"
  pIC50: 8.00
- compound: "O=C(NCCC[C@H](NS(=O)(=O)c1ccc(-c2ccc(Cl)cc2)cc1)C(=O)O)c1cc(Cl)ccc1O"
  pIC50: 8.22
- compound: "CC(C)(C)OC(=O)NCCC[C@H](NS(=O)(=O)c1ccc(-c2ccc(Cl)cc2)cc1)C(=O)O [Example 36]"
  pIC50: 8.70
- compound: "CC(C)COC(=O)NCCC[C@H](NS(=O)(=O)c1ccc(-c2ccc(Cl)cc2)cc1)C(=O)O"
  pIC50: 8.40
- compound: "NCCCC[C@H](NS(=O)(=O)c1ccc(-c2ccc(Cl)cc2)cc1)C(=O)O"
  pIC50: 8.00
- compound: "NS(=O)(=O)c1ccc(C(=O)NCCC[C@H](NS(=O)(=O)c2ccc(-c3ccc(Cl)cc3)cc2)C(=O)O)cc1"
  pIC50: 8.40
- compound: "CN(C)c1ccc(C(=O)NCCC[C@@H](NS(=O)(=O)c2ccc(-c3ccc(Cl)cc3)cc2)C(=O)O)cc1"
  pIC50: 7.70
- compound: "O=C(O)C(CCCN1C(=O)c2ccccc2C1=O)NS(=O)(=O)c1ccc(-c2ccc(Cl)cc2)cc1 (racemic)"
  pIC50: 8.70
- compound: "O=C(NCCC[C@H](NS(=O)(=O)c1ccc(-c2ccc(Cl)cc2)cc1)C(=O)O)C1Cc2ccccc2N1 (stereo partly drawn)"
  pIC50: 8.22
- compound: "NC(=O)NCCCC[C@H](NS(=O)(=O)c1ccc(-c2ccc(Cl)cc2)cc1)C(=O)O"
  pIC50: 8.30
- compound: "Cc1ccc(S(=O)(=O)NC(=N)NCCC[C@H](NS(=O)(=O)c2ccc(-c3ccc(Cl)cc3)cc2)C(=O)O)cc1"
  pIC50: 7.70
- compound: "O=C(NCCC[C@H](NS(=O)(=O)c1ccc(-c2ccc(Cl)cc2)cc1)C(=O)O)c1cc(F)ccc1F"
  pIC50: 8.30
- compound: "Nc1ccc(C(=O)NCCC[C@H](NS(=O)(=O)c2ccc(-c3ccc(Cl)cc3)cc2)C(=O)O)cc1"
  pIC50: 8.40

---

Biological target: neutrophil collagenase (MMP-8) (Homo sapiens)
Construct: enzymatic activity of the catalytic domains of human stromelysin and of neutrophil collagenase; made in house
Experiment: Enzyme inhibition of the catalytic domain of neutrophil collagenase (fluorogenic substrate)
Assay type: biochemical
Conditions: 15 min preincubation, pH=6.5, fluorescence 328 nm (ex)/393 nm (em)

- molecule: "O=C(/C=C/C1C=NC=N1)NCCC[C@H](NS(=O)(=O)c1ccc(-c2ccc(Cl)cc2)cc1)C(=O)O (some centres unmarked) [Example 140]"
  IC50 (nM): 20
- molecule: "O=C(NCCC[C@@H](NS(=O)(=O)c1ccc(-c2ccc(Cl)cc2)cc1)C(=O)O)C1CC1 [Example 41]"
  IC50 (nM): 2
- molecule: "COc1ccc(S(=O)(=O)NCCC[C@H](NS(=O)(=O)c2ccc(-c3ccc(Cl)cc3)cc2)C(=O)O)cc1OC [Example 60]"
  IC50 (nM): 10
- molecule: "O=C(CC(C(=O)O)c1ccccc1)NCCC[C@@H](NS(=O)(=O)c1ccc(-c2ccc(Cl)cc2)cc1)C(=O)O (single isomer, unassigned) [Example 38]"
  IC50 (nM): 2
- molecule: "O=C(NCCC[C@H](NS(=O)(=O)c1ccc(-c2ccc(Cl)cc2)cc1)C(=O)O)c1cc(F)cc(F)c1 [Example 93]"
  IC50 (nM): 4
- molecule: "N#Cc1ccc(C(=O)NCCC[C@H](NS(=O)(=O)c2ccc(-c3ccc(Cl)cc3)cc2)C(=O)O)cc1 [Example 85]"
  IC50 (nM): 5
- molecule: "COc1ccc(C(=O)NCCC[C@H](NS(=O)(=O)c2ccc(-c3ccc(Cl)cc3)cc2)C(=O)O)cc1OC [Example 52]"
  IC50 (nM): 10
- molecule: "C[C@@H]1NC(=O)N(CCC[C@H](NS(=O)(=O)c2ccc(-c3ccc(Cl)cc3)cc2)C(=O)O)C1=O [Example 77]"
  IC50 (nM): 2
- molecule: "O=C(NCCCC[C@H](NS(=O)(=O)c1ccc(-c2ccc(Cl)cc2)cc1)C(=O)O)OCc1ccccc1 [Example 16]"
  IC50 (nM): 10
- molecule: "CN(CCC[C@H](NS(=O)(=O)c1ccc(-c2ccc(Cl)cc2)cc1)C(=O)O)C(=O)C1CC1 [Example 144]"
  IC50 (nM): 3
- molecule: "CC(=O)Oc1ccccc1C(=O)NCCC[C@H](NS(=O)(=O)c1ccc(-c2ccc(Cl)cc2)cc1)C(=O)O [Example 73]"
  IC50 (nM): 2
- molecule: "O=C(NCCC[C@H](NS(=O)(=O)c1ccc(-c2ccccc2)cc1)C(=O)O)c1ccccc1Cl [Example 160]"
  IC50 (nM): 10
- molecule: "N/C(=N\\[N+](=O)[O-])NCCC[C@@H](NS(=O)(=O)c1ccc(-c2ccc(Cl)cc2)cc1)C(=O)O [Example 26]"
  IC50 (nM): 7
- molecule: "O=C(NCCC[C@H](NS(=O)(=O)c1ccc(-c2ccc(Cl)cc2)cc1)C(=O)O)c1ccc(Cl)c(Cl)c1 [Example 92]"
  IC50 (nM): 20
